experiment: Influence of the amount of NaCl on the distribution between oil phase and water phase (Example 5); assay type: physicochemical; settings: NaCl 83.33 %
Readout Label: Distribution in [%] between oil phase and water phase after condensation: Oil phase (%)

{"columns": ["Compound", "Value Units", "Recorded Number"],
 "data": [
  ["CCCCCO", "%", 84.6],
  ["CC(=O)OCCc1ccccc1 [phenylethyl acetate]", "%", 100],
  ["CCCC(=O)OCC [ethyl butyrate]", "%", 98.7],
  ["CCC/C=C/CO [trans-2-hexenol]", "%", 94],
  ["CCCCCCCO", "%", 100],
  ["CC/C=C\\CCOC(C)=O [cis-3-hexenyl acetate]", "%", 100],
  ["CCOC(=O)C(C)CC (centres unmarked) [ethyl 2-methyl butyrate]", "%", 100],
  ["CC/C=C\\CCO [cis-3-hexenol]", "%", 89.2],
  ["CCC/C=C/COC(C)=O [trans-2-hexenyl acetate]", "%", 100],
  ["CCC(C)CO (centres unmarked)", "%", 82.7],
  ["CC(=O)OCC(C)C [2-methylpropyl acetate]", "%", 99],
  ["CCCCCC=O", "%", 100],
  ["CCC/C=C/C=O [trans-2-hexenal]", "%", 87.5],
  ["CC(C)CCO", "%", 82.1],
  ["CCCCCC(=O)O", "%", 97.9],
  ["CCCCCCO", "%", 98.2],
  ["CCCCOC(C)=O [butyl acetate]", "%", 98.6]
]}
